test target: human Nav1.8 sodium channel (Homo sapiens)
test name: Blocking activity on sodium channel 1.8 (Nav1.8), whole-cell manual patch clamp
Type: cell-based
pIC50: −log10 of the molar value.
result type: pIC50

- COc1c([C@H]2[C@H](C(=O)Nc3ccnc(C(N)=O)c3)O[C@@](C)(C(F)(F)F)[C@H]2C)ccc(F)c1F [VX-548, reference compound]: 9.47

###

test target: human Nav1.8 sodium channel (Homo sapiens, UniProt Q9Y5Y9)
Sequence (Q9Y5Y9 whole entry): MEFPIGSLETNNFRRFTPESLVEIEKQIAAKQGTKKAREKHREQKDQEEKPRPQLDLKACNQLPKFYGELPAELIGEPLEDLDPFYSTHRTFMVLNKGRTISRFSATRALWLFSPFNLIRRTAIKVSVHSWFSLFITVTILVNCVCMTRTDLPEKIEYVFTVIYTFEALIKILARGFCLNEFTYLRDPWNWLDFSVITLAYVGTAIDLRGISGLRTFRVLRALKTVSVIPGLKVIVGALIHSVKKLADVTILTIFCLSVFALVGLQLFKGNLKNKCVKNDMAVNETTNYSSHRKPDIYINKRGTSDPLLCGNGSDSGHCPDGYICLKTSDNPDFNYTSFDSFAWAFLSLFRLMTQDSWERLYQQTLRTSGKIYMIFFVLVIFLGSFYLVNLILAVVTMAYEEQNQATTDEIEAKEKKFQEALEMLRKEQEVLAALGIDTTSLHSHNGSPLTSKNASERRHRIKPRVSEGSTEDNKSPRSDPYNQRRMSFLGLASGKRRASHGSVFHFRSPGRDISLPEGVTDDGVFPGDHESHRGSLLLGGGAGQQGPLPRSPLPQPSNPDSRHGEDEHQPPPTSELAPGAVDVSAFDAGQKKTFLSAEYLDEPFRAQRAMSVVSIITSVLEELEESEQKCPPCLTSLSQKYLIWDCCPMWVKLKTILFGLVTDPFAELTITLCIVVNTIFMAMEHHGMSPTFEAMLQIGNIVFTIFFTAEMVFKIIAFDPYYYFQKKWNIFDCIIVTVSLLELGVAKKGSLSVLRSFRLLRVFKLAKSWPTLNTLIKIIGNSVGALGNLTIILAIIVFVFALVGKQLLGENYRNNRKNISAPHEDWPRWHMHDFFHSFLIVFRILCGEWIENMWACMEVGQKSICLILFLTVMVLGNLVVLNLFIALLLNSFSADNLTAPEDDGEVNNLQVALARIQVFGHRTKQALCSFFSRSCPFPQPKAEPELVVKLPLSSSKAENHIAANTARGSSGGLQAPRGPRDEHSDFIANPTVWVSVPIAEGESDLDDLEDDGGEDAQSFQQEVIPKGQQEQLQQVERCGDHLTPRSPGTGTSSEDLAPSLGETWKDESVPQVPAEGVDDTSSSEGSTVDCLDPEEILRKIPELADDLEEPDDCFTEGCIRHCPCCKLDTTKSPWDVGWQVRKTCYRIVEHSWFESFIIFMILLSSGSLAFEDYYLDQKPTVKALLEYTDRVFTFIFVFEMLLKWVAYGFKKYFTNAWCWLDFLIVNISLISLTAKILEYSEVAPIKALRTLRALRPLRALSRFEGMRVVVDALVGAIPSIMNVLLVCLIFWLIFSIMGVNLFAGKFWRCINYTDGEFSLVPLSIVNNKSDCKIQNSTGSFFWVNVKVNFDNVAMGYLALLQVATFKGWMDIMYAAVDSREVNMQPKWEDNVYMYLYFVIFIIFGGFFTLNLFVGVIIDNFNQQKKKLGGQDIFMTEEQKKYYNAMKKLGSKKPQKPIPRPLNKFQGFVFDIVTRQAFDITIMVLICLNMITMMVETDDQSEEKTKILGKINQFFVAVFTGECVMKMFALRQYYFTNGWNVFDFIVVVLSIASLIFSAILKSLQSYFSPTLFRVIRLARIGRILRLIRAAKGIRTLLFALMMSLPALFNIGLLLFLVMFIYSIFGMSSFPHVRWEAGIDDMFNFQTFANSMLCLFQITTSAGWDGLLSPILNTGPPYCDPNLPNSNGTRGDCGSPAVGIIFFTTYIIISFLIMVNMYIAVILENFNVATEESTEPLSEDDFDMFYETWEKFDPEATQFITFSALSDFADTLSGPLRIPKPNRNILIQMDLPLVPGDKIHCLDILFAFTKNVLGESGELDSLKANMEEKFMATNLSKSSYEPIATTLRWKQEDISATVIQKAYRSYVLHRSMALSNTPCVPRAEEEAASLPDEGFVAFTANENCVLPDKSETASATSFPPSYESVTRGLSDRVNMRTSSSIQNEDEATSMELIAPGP
test name: Blocking activity on sodium channel 1.8 (Nav1.8), whole-cell manual patch clamp
Format: cell-based
protocol conditions: read-out: inhibition Percent @1 nM, 1 nM compound
Hi, to clarify the labels: Y covers inhibition at 0.001 µM from 80% upward, N covers anything below 80%.

- Cc1nc(N2CCCC(F)(F)CC2)c(C(=O)Nc2ccc(F)c(NC(=N)N)c2)cc1Cl: N
- [2H]Cc1nc(N2CCCC(F)(F)CC2)c(C(=O)Nc2ccc(F)c(C(N)=NO)c2)cc1Cl: N
- NC(=NO)c1cc(NC(=O)c2cc(Cl)c(C(F)(F)F)nc2N2CCCC(F)(F)CC2)ccc1F: N
- N=C(N)c1cc(NC(=O)c2cc(Cl)c(C(F)F)nc2C2CCCC(F)(F)CC2)ccc1F (centres unmarked): N
- Cc1nc(N2CCCC(F)(F)CC2)c(C(=O)Nc2ccnc(C(N)=NO)c2)cc1Cl: N
- NC(=NO)c1cc(NC(=O)c2cc(Cl)c(C(F)(F)F)cc2N2CCCC(F)(F)CC2)ccc1F: Y

###

test target: human Nav1.8 sodium channel (Homo sapiens)
test name: Blocking activity on sodium channel 1.8 (Nav1.8), whole-cell manual patch clamp
Format: cell-based
protocol conditions: read-out: inhibition Percent @10 nM, 10 nM compound
result type: inhibition at 0.01 µM (%)

* NC(=NO)c1cccc(NC(=O)c2cc(Cl)c(C(F)(F)F)cc2N2CCCC(F)(F)CC2)c1 | 77
* NC(=NO)c1cc(NC(=O)c2cc(Cl)c(N3CCCC3)nc2N2CCCC(F)(F)CC2)ccc1F | 50
* N#CN=C(N)c1cc(NC(=O)c2cc(Cl)c(C(F)(F)F)nc2N2CCCC(F)(F)CC2)ccc1F | 62
* Cc1nc(N2CCCC(F)(F)CC2)c(C(=O)Nc2ccc(F)c(C(N)=NO)c2)cc1C(F)(F)F | 83
* Cc1ccc(NC(=O)c2cc(Cl)c(C)nc2N2CCCC(F)(F)CC2)cc1C(N)=NO | 83
* NC(=NO)c1cccc(NC(=O)c2c(N3CCCC(F)(F)CC3)ccc(Cl)c2C(F)(F)F)c1 | 77
* Cc1ccc(C(=O)Nc2ccc(F)c(C(N)=NO)c2)c(N2CCCC(F)(F)CC2)n1 | 57
* NC(=NO)c1cc(NC(=O)c2cc(Cl)c(Cl)cc2N2CCCC(F)(F)CC2)ccc1F | 80
* C#Cc1cc(C(=O)Nc2ccc(F)c(C(N)=NO)c2)c(N2CCCC(F)(F)CC2)nc1C | 76

###

test name: In vivo pharmacokinetics in rats, single intravenous injection or oral gavage
protocol conditions: male, SD, plasma; Rat, intravenous, single dose 2 mg/kg or 1 mg/kg (figure not given)
Measured AUC(0-t) accompanies every entry in the list below.
result type: AUC(0-t) (ng·h/mL)

* Cc1nc(N2CCCC(F)(F)CC2)c(C(=O)Nc2ccc(F)c(C(N)=NC#N)c2)cc1Cl | 567
* NC(=NO)c1cc(NC(=O)c2cc(Cl)c(C(F)(F)F)cc2N2CCCC(F)(F)CC2)ccc1F | 2270
* Cc1cc(F)ccc1Oc1cc(C(F)(F)F)ccc1C(=O)Nc1cc[nH]c(=O)c1 [VX-150, reference compound] | 2510
* Cc1nc(N2CCCC(F)(F)CC2)c(C(=O)Nc2ccc(F)c(C(N)=NO)c2)cc1Cl | 1290
* NC(=NO)c1cc(NC(=O)c2cc(Cl)c(C(F)(F)F)nc2N2CCCC(F)(F)CC2)ccc1F | 4440
* CC(C)c1nc(N2CCCC(F)(F)CC2)c(C(=O)Nc2ccc(F)c(C(N)=NO)c2)cc1Cl | 1260
* COc1c([C@H]2[C@H](C(=O)Nc3ccnc(C(N)=O)c3)O[C@@](C)(C(F)(F)F)[C@H]2C)ccc(F)c1F [VX-548, reference compound] | 804
